Target: Fab of anti-PDL1 antibody C5H9v2
Sequence (VH, as listed by the source, chain 1 of 2): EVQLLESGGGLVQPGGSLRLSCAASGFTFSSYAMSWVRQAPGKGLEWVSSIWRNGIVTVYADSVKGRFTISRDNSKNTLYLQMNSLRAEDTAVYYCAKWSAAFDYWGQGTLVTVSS
Sequence (VL, as listed by the source, chain 2 of 2): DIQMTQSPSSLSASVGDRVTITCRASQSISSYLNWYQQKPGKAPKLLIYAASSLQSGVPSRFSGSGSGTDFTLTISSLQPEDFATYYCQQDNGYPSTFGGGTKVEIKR
Assay: binding of Fab to peptide-displaying clones
Quantity Name: binding result

binder="IACRHFMEQLPFCHH [masking moiety PL04]" meas_value=binds
binder="FGPRCGEASTCVPYE [masking moiety PL05]" meas_value=binds
binder="PCHPHPADARPYCNV (differs from PL10 by one alanine) [masking moiety PL19]" meas_value=binds
binder="PCHPHPYDARPYCAV (differs from PL10 by one alanine) [masking moiety PL23]" meas_value=binds
binder="PCYWHPFFAYRYCNT [masking moiety PL11]" meas_value=binds
binder="PCHAHPYDARPYCNV (differs from PL10 by one alanine) [masking moiety PL24]" meas_value=binds
binder="ACHPHPYDARPYCNV (differs from PL10 by one alanine) [masking moiety PL16]" meas_value=binds
binder="GIALCPSHFCQLPQT [masking moiety PL07]" meas_value=binds
binder="VCYYMDWLGRNWCSS [masking moiety PL12]" meas_value=binds
binder="PCHPHPYDARAYCNV (differs from PL10 by one alanine) [masking moiety PL25]" meas_value=binds
binder="PCHPHAYDARPYCNV (differs from PL10 by one alanine) [masking moiety PL18]" meas_value=binds
binder="IFCHMGVVVPQCANY [masking moiety PL15]" meas_value=binds
binder="DGPRCFVSGECSPIG [masking moiety PL08]" meas_value=binds
binder="PCHPHPYAARPYCNV (differs from PL10 by one alanine) [masking moiety PL20]" meas_value=binds
binder="PCHPAPYDARPYCNV (differs from PL10 by one alanine) [masking moiety PL17]" meas_value=binds
